// data source = PubChem BioAssay (NCI)

# Test system: HT29 colon
# test-details: NCI-60 one-dose screen, 48 h (100 = growth as untreated, 0 = no growth, -100 = all killed)
# stated-conditions: 10 µM unless noted
# Method: Growth inhibition of the HT29 human tumor cell line is measured as a screen for anti-cancer activity. Cells are grown in 96 well plates and exposed to the test compound for 48 hours. Compounds are tested at a single concentration, which is 10^-5 M for most compounds. The reported endpoint is percent growth (GI% or GIPRCNT), where numbers from 0 - 100% represent growth inhibition, and numbers from -100% - 0 represent cell death. For example, a value of 40 represents 60% growth inhibition. […]
This is part of a sample that, as a whole, favours compounds with a hit. Of some 83,000 tested, about 20% had one in any assay.
Assign labels as follows, please: 1 for growth below 90%; -1 for growth equal to or exceeding 90%.

INSERT INTO results (compound, class_assignment) VALUES
  ('[Cl][Hg][c]1cc[c]([Hg][Cl])o1', 1),
  ('O=C1C(=Cc2cn(Cc3ccccc3)c3ccccc23)C(=O)N(Cc2ccccc2)C(=O)N1Cc1ccccc1', -1),
  ('O=C(CCCC1CCCCC1)OCC(Cl)(Cl)Cl', -1),
  ('C=COC(=O)CCN1CC1', -1);

# input Does `CCOP(=O)(NC[C@H]1O[C@](O)(CO)[C@@H](O)[C@@H]1O)OCC` have growth strictly under 90%?
# output -1

# input Does C[C@@H]1CCC2[C@@H](C)[C@H](OC(=O)CCC(=O)NCCNC(=O)Cc3cc(=O)oc4cc(N(C)C)ccc34)O[C@@H]3O[C@]4(C)CC[C@@H]1C23OO4 (stereo not given in full) have growth strictly under 90%?
# output 1

---

# Tested on: NCI-H226 lung
# test-details: NCI-60 one-dose screen, 48 h (100 = growth as untreated, 0 = no growth, -100 = all killed)
# stated-conditions: 10 µM unless noted
This is part of a sample that, as a whole, favours compounds with a hit. Of some 83,000 tested, about 20% had one in any assay.
Kindly state growth for each of the entries shown.
Numbers only, in %.

INSERT INTO results (compound, system, unit_text, observed_result) VALUES
  ('COc1cc(C=Nc2cccc(C(=O)O)c2)ccc1N(CCCl)CCCl', 'NCI-H226 lung', '%', 92.7),
  ('N#CC1(c2ccccc2)CCN(Cc2ccccc2)CC1', 'NCI-H226 lung', '%', 101),
  ('N#C[Se]CCN1C(=O)c2ccccc2C1=O', 'NCI-H226 lung', '%', 36.3),
  ('C[C@]12C[C@@H](CO)[C@H](O)C[C@@H]1CC[C@@H]1[C@@H]2CC[C@]2(C)[C@@H](O)CC[C@@H]12', 'NCI-H226 lung', '%', 102),
  ('C[C@]12CCc3sc(NCCc4ccccc4)nc3C1=CC[C@@H]1[C@@H]2CC[C@]2(C)C(=O)CC[C@@H]12', 'NCI-H226 lung', '%', 84.1);

Please go through the list and note growth for each compound.
1. Cn1cc(-c2csc(-c3cn(CCCCN4CCCCC4)c4ccc(F)cc34)n2)c2cccnc21
2. O=C(CC1(O)C(=O)N(Cc2ccccc2)c2ccc(Br)cc21)c1ccc(C(=O)NCC2CCC3(CC2)OOC2(CCCCC2)OO3)cc1 (configuration not stated)
3. CCOC(=O)[C@@H](C)C[C@H](Cc1ccccc1)NC(=O)c1csc([C@@H](C[C@H](C(C)C)N(C)C(=O)CNC(=O)[C@H]2CCCCN2C)OC(C)=O)n1
4. CN(CCCCN(C)CCOS(C)(=O)=O)CCOS(C)(=O)=O
5. COc1ccc(/C=C\c2cc(OC)c(OC)c(OC)c2)cc1NC(=O)/C=C/c1ccc(OC)c(OC)c1
6. CC(=O)OC[C@]1(C)C=C2C(=O)[C@](C)(O)C3(CC3)C(C)=C2[C@H]1OC(=O)N(C)CCN(C)C(=O)OC(C)(C)C
7. C=CCCCN=C=S

# output
[74.6, -33, 69.9, 75, 35.9, 24.7, 94.9]

Please go through the list and note growth for each compound.
1. O=C(Nc1ccncc1F)c1cn(CC2CC2)c2ccccc12
2. COc1ccc(C(=O)c2sc3nc4c(cc3c2N)N2CCC4CC2)cc1OC
3. COc1ccc(C2=CC(c3ccc(OC)c(OC)c3)c3c(c4ccccc4oc3=O)O2)cc1OC (configuration not stated)
4. C[C@@]12CC[C@@H](O)C[C@@H]1CC[C@H]1[C@H]2CC[C@@]2(C)[C@H](c3ccc(=O)oc3)CC[C@@]12O
5. CC(=O)O[C@H](C[C@H](C(C)C)N(C)C(=O)[C@@H](NC(=O)[C@H]1CCCCN1C)C(C)C)c1nc(C(=O)NC2CCC(C(=O)O)CC2)cs1 (some centres not stated)
6. C/C1=C/C(=O)O[C@@H]2C[C@@H](CC[C@H](C)/C=C\C=C\CC1)O[C@@](O)([C@@H]1CSC(=O)N1CO)C2
7. CC(=O)OC[C@]1(C)C=C2C(=O)[C@](C)(O)C3(CC3)C(C)=C2[C@H]1O
8. CC(=O)Oc1ccccc1C(=O)NCCC[Se]C#N

# output
1. 83.7
2. 65.2
3. 89.5
4. -91.9
5. 90.6
6. 46.1
7. -15
8. -22.8

Please go through the list and note growth for each compound.
1. c1ccc(CSC(c2ccccc2)c2ccccc2)cc1
2. COc1cc2c(cc1OCCCn1c(-c3ccccn3)nc3ccccc31)N=C[C@@H]1CCCN1C2=O
3. COc1ccc(Nc2ccc([N+](=O)[O-])cc2[N+](=O)[O-])cc1CN(CCCl)CCCl
4. O=C1NC(=O)C(=Cc2cn(CCCCCCn3c4ccccc4c(=O)c4ccccc43)c3ccccc23)C(=O)N1
5. CCN(CCO)C(Cc1ccccc1)c1ccccc1 (configuration not stated)
6. Cc1c(C)c([N+](=O)[O-])c(C)c(C)c1[N+](=O)[O-]

# output
1: 111; 2: -62; 3: 39.7; 4: 67.2; 5: 101; 6: 100

---

# Test system: NCI-H226 lung
# test-details: NCI-60 one-dose screen, 48 h
# stated-conditions: 10 µM unless noted
The panel holds about 83,000 compounds, 20% with a hit somewhere; the sample as a whole holds those more often. Calls of active or inactive are those of the source. The calls were made as follows: active = growth percent below 10; inactive = the rest.
Answer with one of the outcomes given here: active, inactive

INSERT INTO results (compound, class_assignment) VALUES
  ('CCOC(=O)C(Cc1ccc(N(CCCl)CCCl)cc1)NC(=O)C(CC(C)C)NC(C)=O (stereo unspecified)', 'inactive'),
  ('O=C(O)c1c(Cl)n(Cc2ccc(O)cc2)c2ccc(O)cc12', 'inactive'),
  ('c1ccc(Nc2nc(-c3ccccc3)c[se]2)cc1', 'inactive'),
  ('CC[C@H](C)[C@H](NC(=O)C12C3C4C1C1C2C3C41NC(C)=O)C(=O)N(C)[C@H](C[C@@H](OC(C)=O)c1nc(C(=O)N[C@@H](Cc2ccccc2)C[C@H](C)C(=O)OC)cs1)C(C)C (stereo partly specified)', 'inactive'),
  ('O=C(CC1(O)C(=O)N(Cc2ccccc2)c2ccc(F)cc21)c1ccc(C(=O)NCC2CCC3(CC2)OOC2(CCCCC2)OO3)cc1 (stereo unspecified)', 'active');

# input How did this test come out for `CC(=O)OCC1O[C@@H]([S-])C(OC(C)=O)[C@H](OC(C)=O)[C@@H]1OC(C)=O.[Au+].c1ccc(CN2[CH-]N(Cc3ccccc3)C(c3ccccc3)=C2c2ccccc2)cc1` ?
# output inactive

# input How did this test come out for `COC(=O)[C@@H](C)C[C@H](Cc1ccccc1)NC(=O)c1csc([C@@H](C[C@H](C(C)C)N(C)C(=O)[C@@H](NC(=O)[C@H]2CCCCN2C)c2ccc(F)cc2)OC(C)=O)n1` ?
# output inactive

# input How did this test come out for `CC[C@H](C)[C@H](NC(=O)NC(C)(C)C)C(=O)N(C)[C@H](C[C@@H](OC(C)=O)c1nc(C(=O)N[C@@H](Cc2ccccc2)C[C@H](C)C(=O)OC)cs1)C(C)C` ?
# output inactive

---

# Test system: OVCAR-3 ovarian
# test-details: NCI-60 one-dose screen, 48 h
# stated-conditions: 10 µM unless noted
Compounds without any hit were thinned out: in the full panel of roughly 83,000, 20% have a hit. Active and inactive are the calls of the source. How the source made its calls: active means growth percent below 10; inactive means the rest.
Answer with one of the outcomes given here: active, inactive

The following compounds have reported results that may help.
INSERT INTO measurements (compound, class_assignment) VALUES
  ('COc1ccc(C/C(C)=C(\c2ccc(OCCN3CCOCC3)cc2)c2ccc(OC(=O)Cc3ccccc3)cc2)cc1', 'active'),
  ('C/C(=C\c1ccn(-c2ccccc2N)n1)[C@@H]1C[C@@H]2O[C@]2(C)CCC[C@H](C)[C@H](O)[C@@H](C)C(=O)C(C)(C)[C@@H](O)CC(=O)O1', 'active'),
  ('COC(=O)[C@@H](C)C[C@H](Cc1ccccc1)NC(=O)c1csc([C@@H](C[C@H](C(C)C)N(C)C(=O)[C@@H](NC(=O)[C@H]2CCCCN2C)C2CC2)OC(C)=O)n1', 'active'),
  ('CCc1ccccc1[C@@H]1C[C@]2(C)CCO[C@@H]2OO1', 'inactive'),
  ('CC[C@H](C)[C@H](NC(=O)[C@H]1CCCCN1C)C(=O)N(C)[C@H](C[C@@H](OC(C)=O)c1nc(C(=O)NC23CC(C(=O)OC)(C2)C3)cs1)C(C)C', 'active');

# input How did this test come out for `COc1ccc(Nc2ccnc3cc(Cl)ccc23)cc1CN(CCCl)CCCl` ?
# output active

# input How did this test come out for O=C([O][Hg][CH2]C1OCCOC1[CH2][Hg][O]C(=O)c1ccccc1)c1ccccc1 (stereo unspecified) ?
# output active

# input How did this test come out for `ClCCN(CCCl)c1ccc(OCc2ccccc2)cc1` ?
# output inactive
